Assay: Growth inhibition of human WI38 cells
Assay type: cell-based
Settings: WI-38
Examples of molecules with documented IC50 follow.
Write the number in µM without appending the unit.

C=C1[C@@H](OC(C)=O)CC[C@@]2(C)[C@@H](OC(=O)/C=C/c3ccccc3)[C@H](OC(C)=O)C3=C(C)C[C@H](OC(C)=O)[C@@H]([C@@H](OC(C)=O)[C@H]12)C3(C)C :: 151
C=C1[C@@H](OC(C)=O)CC[C@@]2(C)C[C@H](O)C3=C(C)C[C@H](OC(C)=O)[C@@H]([C@@H](OC(C)=O)[C@H]12)C3(C)C :: 105
C=C1[C@@H](OC(C)=O)CC[C@@]2(C)C[C@H](OC(C)=O)C3=C(C)C[C@H](OC(C)=O)[C@@H]([C@@H](O)[C@H]12)C3(C)C :: 130
C=C1[C@@H](OC(C)=O)C[C@H](O)[C@@]2(C)C[C@H](OC(C)=O)C3=C(C)C[C@H](OC(=O)C(C)CC)[C@@H]([C@@H](OC(C)=O)[C@H]12)C3(C)C (some centres undefined) :: 81.6

Could you please provide reported IC50 for C=C1[C@@H](OC(C)=O)CC[C@@]2(C)C[C@H](OC(=O)/C=C/c3ccccc3)C3=C(C)C[C@H](O)[C@@H]([C@@H](OC(C)=O)[C@H]12)C3(C)C ? Thanks!
71.7

Could you please provide reported IC50 for C=C1[C@@H](OC(C)=O)C[C@H](OC(=O)/C=C/c2ccccc2)[C@@]2(C)C[C@H](OC(C)=O)C3=C(C)C[C@H](OC(=O)C(C)C(C)O)[C@@H]([C@@H](OC(C)=O)[C@H]12)C3(C)C (some centres undefined) ? Thanks!
62.4
